Just for reference, patent US12037344B2 is where these values come from.

Molecular target: TLR7 (Homo sapiens, UniProt Q9NYK1)
Construct: human HEK-Blue cells co-expressing a TLR7 or TLR8 gene
Sequence (Q9NYK1 27-1049): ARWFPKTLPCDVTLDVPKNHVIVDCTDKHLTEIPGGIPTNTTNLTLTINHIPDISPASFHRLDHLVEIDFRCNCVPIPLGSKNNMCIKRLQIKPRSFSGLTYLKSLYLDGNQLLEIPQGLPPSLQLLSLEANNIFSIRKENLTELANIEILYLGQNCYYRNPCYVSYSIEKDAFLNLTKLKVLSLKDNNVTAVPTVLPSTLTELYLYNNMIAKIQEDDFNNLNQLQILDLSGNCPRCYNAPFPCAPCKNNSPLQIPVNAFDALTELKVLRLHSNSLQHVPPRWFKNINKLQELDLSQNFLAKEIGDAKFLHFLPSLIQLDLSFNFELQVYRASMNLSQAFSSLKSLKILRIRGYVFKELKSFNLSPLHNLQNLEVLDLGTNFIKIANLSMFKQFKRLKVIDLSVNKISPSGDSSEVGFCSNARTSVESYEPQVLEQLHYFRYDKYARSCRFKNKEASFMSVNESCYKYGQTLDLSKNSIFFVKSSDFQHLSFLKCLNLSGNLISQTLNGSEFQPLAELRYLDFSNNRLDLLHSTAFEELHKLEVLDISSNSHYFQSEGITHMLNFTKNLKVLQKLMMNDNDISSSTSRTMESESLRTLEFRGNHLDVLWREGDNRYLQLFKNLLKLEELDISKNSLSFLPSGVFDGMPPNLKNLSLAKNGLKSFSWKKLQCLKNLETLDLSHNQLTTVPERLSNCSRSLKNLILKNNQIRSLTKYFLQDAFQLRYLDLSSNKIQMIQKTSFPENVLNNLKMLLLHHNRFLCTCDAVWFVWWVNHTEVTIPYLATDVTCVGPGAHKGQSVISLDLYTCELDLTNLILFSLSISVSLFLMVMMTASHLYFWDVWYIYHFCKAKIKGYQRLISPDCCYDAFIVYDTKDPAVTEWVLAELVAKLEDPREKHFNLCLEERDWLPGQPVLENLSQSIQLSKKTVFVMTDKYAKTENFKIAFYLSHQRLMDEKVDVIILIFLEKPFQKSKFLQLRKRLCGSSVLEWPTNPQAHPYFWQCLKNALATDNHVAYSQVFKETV
Assay: In vitro human TLR7 binding reporter assay (HEK-Blue, NF-kB/AP1-inducible SEAP)
Assay type: cell-based
Settings: activity range class, read-out: TLR7 Agonist EC50
Procedure: In Vitro Human TLR7 and TLR8 Binding Reporter Assays Logarithmically-growing human HEK-Blue cells co-expressing a TLR7 or TLR8 gene and a NF-kB/AP1-inducible SEAP (secreted embryonic alkaline phosphatase; Invivogen, San Diego, CA) reporter gene are added to individual wells of a 384-well plate (15,000 cells per 20 μL per well) and maintained for 24 h at 37° C., 5% CO2. […] All EC50 values (half-maximal effective concentration) are determined using proprietary data analysis software. […]
pEC50: −log10 of the molar value.
Listing of recorded pEC50 by entry.

In the examples that follow, each entry is paired with its recorded pEC50.
Molecule: Nc1nc2cc(-c3cc[nH]n3)ccc2c2nn(C3CCCC3O)cc12 (single isomer, unassigned) [Example 316]
pEC50: < 4.00
//
Molecule: Nc1nc2cc(-c3cc[nH]n3)ccc2c2cn(CCNCc3ccccc3)nc12
pEC50: 4.00 to 4.70
//
Molecule: Nc1nc2cc(-c3cc[nH]n3)ccc2c2nn(CCC(F)(F)F)cc12
pEC50: < 4.00
//
Molecule: Nc1nc2cc(-c3cc[nH]n3)ccc2c2cn(CCNC(=O)c3coc(Cl)n3)nc12
pEC50: 4.00 to 4.70

So what does the record say about pEC50 for CC(CCO)n1cc2c(N)nc3cc(-c4cc[nH]n4)ccc3c2n1 (single isomer, unassigned) [Example 287] ?
< 4.00

Now consider `COc1ccc(C(=O)NCCn2cc3c(n2)c(N)nc2cc(-c4cc[nH]n4)ccc23)nc1` and answer again.
< 4.00

Now consider `Nc1nc2cc(-c3cc[nH]n3)ccc2c2c1cnn2Cc1cn[nH]c1` and answer again.
< 4.00
